# Euclidean distance values compiled below
Test system: OVCAR4
Test details: Euclidean distance of Cell Painting phenotypic profile (signed KS, 77 features) to DMSO centroid (dimensionless distance); 5 or 10 uM (library dependent); higher = stronger phenotypic change vs DMSO (phenoactivity)
Measurement context: 48 h
Structures can show the parent of a compound that is named as a salt.

Compound | Euclidean distance
C[C@@H]1O[C@@H](OC[C@H]2O[C@@H](Oc3c(-c4ccc(OCCO)c(OCCO)c4)oc4cc(OCCO)cc(O)c4c3=O)[C@H](O)[C@@H](O)[C@@H]2O)[C@H](O)[C@H](O)[C@H]1O | 0.81
CCN(CC)CC(=O)Nc1c(C)cccc1C [Lidocaine hydrochloride] | 1.35
CN1CCCN=C1/C=C/c1cccs1 [Pyrantel Pamoate] | 1.2
Cc1ccc(C)c(OCCCC(C)(C)C(=O)O)c1 | 1.02
O=C(Nc1ccccc1)c1cc([N+](=O)[O-])ccc1Cl | 1.2
CCN(CC)Cc1ccc2cc(COC(=O)Nc3ccc(C(=O)NO)cc3)ccc2c1 | 3.32
COc1cc(OC)c(NC(=O)Nc2cc(C)on2)cc1Cl | 1.52
CCCN(CCC)CCc1cccc2c1CC(=O)N2 [Ropinirole HCl] | 1.2
COc1cc2ncnc(Nc3cccc(Cl)c3)c2cc1OC | 0.649
Clc1ccc(CCC(Cn2ccnc2)Sc2c(Cl)cccc2Cl)cc1 (stereo unspecified) | 1.31
OCCN(CCO)c1nc(N2CCCCC2)c2nc(N(CCO)CCO)nc(N3CCCCC3)c2n1 | 0.968
O=C(CCc1ccc(O)cc1)c1c(O)cc(O)cc1O | 0.792
CN(C)c1cc(NC(=O)CNC(C)(C)C)c(O)c2c1C[C@H]1C[C@H]3[C@H](N(C)C)C(O)=C(C(N)=O)C(=O)[C@@]3(O)C(O)=C1C2=O | 1.18
CN1C2CCCC1CC(NC(=O)c1nn(C)c3ccccc13)C2 (stereo unspecified) [Granisetron HCl] | 1
O=C(c1ccc(/C=C/c2n[nH]c3ccccc23)cc1)N1CCNCC1 | 3.53
COc1cc2nc(N3CCN(C(=O)C4CCCO4)CC3)nc(N)c2cc1OC (stereo unspecified) [Terazosin HCl] | 1.01

###

Tested on: FB
Test details: Euclidean distance of Cell Painting phenotypic profile (signed KS, 77 features) to DMSO centroid (dimensionless distance); 5 or 10 uM (library dependent); higher = stronger phenotypic change vs DMSO (phenoactivity)
Measurement context: 48 h
Structures can show the parent of a compound that is named as a salt.
Think of 1 as a floor: if Euclidean distance stands on it or above, it is 1 (yes); beneath it, 0 (no).

Compound | Experimental system | Category label
OC[C@H]1O[C@@H](Oc2ccc(O)cc2)[C@H](O)[C@@H](O)[C@@H]1O | FB | 0 (no)
COCC(=O)Nc1cc(Sc2ccccc2)ccc1N=C(NC(=O)OC)NC(=O)OC | FB | 1 (yes)
O=C(NC1CCOCC1)c1ccc(-c2cc(-c3c[nH]nc3-c3ccccn3)ccn2)cc1 | FB | 1 (yes)
COc1ccccc1OCC(O)COC(N)=O (stereo not drawn) | FB | 0 (no)
CN(CCOc1ccc(CC2SC(=O)NC2=O)cc1)c1ccccn1 (stereo not drawn) [Rosiglitazone HCl] | FB | 1 (yes)
CN(C)CCc1c[nH]c2ccc(CS(=O)(=O)N3CCCC3)cc12 [Almotriptan Malate] | FB | 1 (yes)
CN[C@H]1CC[C@@H](c2ccc(Cl)c(Cl)c2)c2ccccc21 [Sertraline HCl] | FB | 1 (yes)
NC(=O)c1cnc2[nH]ccc2c1N[C@@H]1[C@@H]2CC3C[C@H]1C[C@@](O)(C3)C2 | FB | 1 (yes)
C[n+]1ccccc1C=NO [Pralidoxime Iodide] | FB | 0 (no)
CN(C(=O)c1ccc(F)cc1C(F)(F)F)C1CCN(c2nnc(-c3ccnn3C)c3ccccc23)CC1 | FB | 1 (yes)
CCc1ccc(OCc2ccccc2C(=O)Nc2ccc3nc(C)cc(N)c3c2)cc1 | FB | 1 (yes)
CCCC(=O)O[C@]1(C(=O)CCl)[C@H](C)C[C@@H]2[C@@H]3CCC4=CC(=O)C=C[C@]4(C)[C@]3(F)C(=O)C[C@@]21C [clobetasone butyrate] | FB | 1 (yes)
CC(C)(C)Cn1c(N)nc2ccc(-c3[nH]c(C(C)(C)C)nc3-c3ccc(F)cc3)nc21 | FB | 1 (yes)
